This collection of values is drawn from PubChem BioAssay.

Measured composite z-score, listed per entry for reference.
# Tested on: glycogen synthase kinase-3 (GSK3A per assay name; protocol says GSK3B)
# method: GSK3 binders on small-molecule microarrays, primary screen, biochemical, small-molecule microarray, 635 nm fluorescence, GSK3A (AID 1103); note: the record names both GSK3A and GSK3B
# protocolConditions: small-molecule microarray binding, fluorescence 635 nm; higher = more signal
Form field (numeric): enter value without unit.

Example cases with answers are listed next.
Cc1c(NC(=O)/C(C#N)=C/c2ccc(Cl)cc2)c(=O)n(-c2ccccc2)n1C | 0.0624
N#Cc1ccc(C(O)C2C=CC3C(=O)N(c4ccccc4)C(=O)C3N2Nc2ccc([N+](=O)[O-])cc2)cc1 (configuration not stated) | 1.09
NC(=O)NCC#Cc1ccc2c(c1)[C@]1(C(=O)N2)[C@H](C(=O)Nc2nc3ccccc3s2)[C@H]2C(=O)O[C@H](c3ccccc3)[C@H](c3ccccc3)N2[C@@H]1c1ccc(OCCO)cc1 | -0.95
C=C(COC)/C(=C/C[C@@H](OC(C)=O)c1ccccc1OCCO)c1cc(C(=O)OC)ccc1OC | -0.208
CC(C)C[C@@H]1NC(=O)[C@H]2C[C@@H](C(=O)NCCCCCCNC(=O)CS)[C@@H](c3ccc(O)cc3)N2C1=O | 1.25
COCCOC(=O)N1C(=O)[C@@]2(c3cc(C#CC4(O)CCCCCC4)ccc31)[C@H](C(=O)N1CCc3cc(OC)c(OC)cc3C1)[C@H]1C(=O)O[C@H](c3ccccc3)[C@H](c3ccccc3)N1[C@@H]2c1ccc(O)cc1 | 1.32

Query :: Entry CC(C)C[C@H]1NC(=O)[C@H](Cc2ccccc2)NC(=O)[C@@]23C(=O)N[C@@H](Cc4ccccc4)C2[C@H](C)[C@@]2(C)O[C@H]2C3/C=C/C/C=C\CNC1=O (some centres not stated) has what composite z-score?
Result :: 0.979

Query :: Entry CO[C@H]1O[C@H](CO)[C@@H](OC(=O)Nc2ccc(C(F)(F)F)cc2)[C@H](OC(=O)Nc2ccccc2-c2ccccc2)[C@H]1OC(=O)Nc1ccccc1-c1ccccc1 has what composite z-score?
Result :: 1.35

Query :: Entry C=CCC(OC(C)=O)[C@@H]1[C@@H](N(Cc2ccc(-c3cccc(C(F)(F)F)c3)o2)C(=O)c2cccc3ccccc23)c2cc(OCCCO)ccc2N1C(=O)c1ccc2ccccc2c1 (some centres not stated) has what composite z-score?
Result :: -1.08

Query :: Entry CN(C)CCCNC(=O)[C@@H]1c2ccccc2C(=O)N(C2Cc3ccccc3C2)[C@H]1c1ccc(CO)cc1 has what composite z-score?
Result :: 1.27

Query :: Entry CN1C(=O)[C@]2(CCS(=O)(=O)c3ccccc3)N=C(c3ccc(OCCCO)cc3)O[C@@H]2c2ccccc21 has what composite z-score?
Result :: 1.33

Query :: Entry CCCCC(=C=CC[C@@H](O)c1ccc(OCCO)cc1)C[C@@H](O)c1ccccn1 has what composite z-score?
Result :: 0.382

---

Measured composite z-score, listed per entry for reference.
# method: small-molecule binders of probe aNOTCH2, primary screen, biochemical, small-molecule microarray, 635/667 nm fluorescence (AID 1121);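 note: score merges feature fluorescence read at 667 nm with its signal to noise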
# protocolConditions: higher = more signal
Form field (numeric): enter value without unit.

COC(=O)[C@H](Cc1ccc(O)cc1)N1CC2=CCCC=C[C@@H]2[C@H]1[C@H](O)Cc1ccccc1 | -0.0772
CC1CC/C=C\[C@H]2OC34C=CCN(c5ccc(Cl)cc5)C(=O)[C@H]3N(CCCO)C(=O)[C@]4(C)C2C(=O)O1 (some centres undefined) | -0.18
[N-]=[N+]=NCc1ccccc1C[C@@]1(C(=O)O)N=C(c2ccc(OCCCO)cc2)O[C@@H]1c1ccccc1CN=[N+]=[N-] | -0.0716

Turning now to a further record.
Query :: Entry COc1ccc([Si](C)(C)[C@H]2[C@H](CCn3cc([C@H](O)c4ccccc4)nn3)O[C@@]3(C(=O)N(C)c4c(Br)cc(C)cc43)[C@@H]2C)cc1 has what composite z-score?
Result :: -0.103
